PROCEDURE DETAILS: Antiproliferative activity against mouse 3T3 cells assessed as cell viability at 80 uM incubated for 24 hrs by MTT assay relative to control
Assay type: toxicity, cell-based
REPORTED CONDITIONS: NIH3T3 cells, read-out: Activity
ENDPOINT LABEL: viability at 24 h, 80 µM

See these solved cases before continuing.
{"STRUCTURE AS SMILES": "OC[C@H]1O[C@@H](Oc2ccc(COC(=S)Nc3ccc(C(F)(F)F)cc3)cc2F)[C@H](O)[C@@H](O)[C@H]1O", "RESULT": "87.9%"}
{"STRUCTURE AS SMILES": "OC[C@H]1O[C@@H](Oc2ccc(COC(=S)Nc3ccc(C(F)(F)F)cc3)cc2F)[C@H](O)[C@@H](O)[C@@H]1O", "RESULT": "90.8%"}
{"STRUCTURE AS SMILES": "OC[C@H]1O[C@@H](Oc2ccc(COC(=S)Nc3ccc(C(F)(F)F)cc3)cc2)[C@H](O)[C@@H](O)[C@@H]1O", "RESULT": "91.7%"}

In: Check the records and state viability at 24 h, 80 µM for OC[C@H]1O[C@@H](Oc2ccc(COC(=S)Nc3ccc(C(F)(F)F)cc3)cc2Br)[C@H](O)[C@@H](O)[C@H]1O
Out: 89.2%

Where do these numbers come from? They come from ChEMBL document CHEMBL5625267.
